molecular target: TLX LBD (Homo sapiens (Human)); assay: ALPHA screen assay for TLX LBD and coactivator peptide recruitment; type: biochemical; conditions: Table 3; 200 μM; mean (std. dev.)
Sequence (Q9Y466 155-383): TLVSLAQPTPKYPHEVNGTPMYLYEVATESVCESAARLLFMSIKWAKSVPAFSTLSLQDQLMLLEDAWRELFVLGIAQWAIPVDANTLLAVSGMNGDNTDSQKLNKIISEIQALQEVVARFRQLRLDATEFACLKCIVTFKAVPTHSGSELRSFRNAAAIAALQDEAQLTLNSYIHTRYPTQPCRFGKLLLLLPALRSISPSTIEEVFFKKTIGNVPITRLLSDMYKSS
REPORTED_ENDPOINT: Average ALPHA signal at 200 μM (std. dev.)

Look over these answered cases.
[[record]]
compound = "CC(C)CCNc1ncccc1C(=O)N1CCN(Cc2ccccc2)C[C@@H]1C [Compound 4]"
measured_value = "2.29 (0.09)"

[[record]]
compound = "COC(=O)C[C@@H]1[C@H](C)N(Cc2ccccc2)CCN1C(=O)c1cccnc1NCCC(C)C [Compound 69]"
measured_value = "2.53 (0.08)"

[[record]]
compound = "CC(C)CCNc1ncccc1C(=O)N1CCN(Cc2ccccc2)[C@@H](C)C1 [Compound 2]"
measured_value = "2.45 (0.05)"

[[record]]
compound = "CC(C)CCNc1ncccc1C(=O)N1C[C@@H](CC(=O)O)N(Cc2ccccc2)[C@H](C)C1 [Compound 68]"
measured_value = "1.02 (0.03)"

[[record]]
compound = "COC(=O)c1ccccc1CN1CCN(C(=O)c2cccnc2NCCC(C)C)CC1 [Compound 55]"
measured_value = "2.87 (0.07)"

[[record]]
compound = "COC(=O)C[C@@H]1[C@@H](C)N(Cc2ccccc2)CCN1C(=O)c1cccnc1NCCC(C)C [Compound 72]"
measured_value = "2.51 (0.10)"


--- query ---
## Input Specify Average ALPHA signal at 200 μM (std. dev.) for COC(=O)c1ccc(CN2CCN(C(=O)c3cccnc3NCCC(C)C)CC2)cc1 [Compound 57] and stop.
## Output 2.54 (0.04)
